As a worked illustration, we turn to Ki data collected for Histamine H1 receptor (Homo sapiens).
PROPERTY LABEL: Ki (µM)

compound=NC(=O)N(O)CCC#C[C@@H]1CC[C@@H](CN2CCN([C@H](c3ccccc3)c3ccc(Cl)cc3)CC2)O1 property_label=Ki test_result=0.05
compound="CC(C#Cc1ccc(CN2CCN([C@H](c3ccccc3)c3ccc(Cl)cc3)CC2)o1)N(O)C(N)=O (some centres not stated)" property_label=Ki test_result=0.19

###

- ASSAY METHOD TEXT: Permeability in Caco-2 cells of compound
- Assay type: ADME, cell-based
- ASSAY CONTEXT: human
PROPERTY LABEL: Permeability (×10⁻⁶ cm/s)

query_smiles=NC(=O)N(O)CCC#Cc1ccc(CN2CCN([C@H](c3ccccc3)c3ccc(Cl)cc3)CC2)o1 test_result=6

###

- SYSTEM: Polyunsaturated fatty acid 5-lipoxygenase (Homo sapiens, UniProt P09917)
- Sequence (P09917 whole entry): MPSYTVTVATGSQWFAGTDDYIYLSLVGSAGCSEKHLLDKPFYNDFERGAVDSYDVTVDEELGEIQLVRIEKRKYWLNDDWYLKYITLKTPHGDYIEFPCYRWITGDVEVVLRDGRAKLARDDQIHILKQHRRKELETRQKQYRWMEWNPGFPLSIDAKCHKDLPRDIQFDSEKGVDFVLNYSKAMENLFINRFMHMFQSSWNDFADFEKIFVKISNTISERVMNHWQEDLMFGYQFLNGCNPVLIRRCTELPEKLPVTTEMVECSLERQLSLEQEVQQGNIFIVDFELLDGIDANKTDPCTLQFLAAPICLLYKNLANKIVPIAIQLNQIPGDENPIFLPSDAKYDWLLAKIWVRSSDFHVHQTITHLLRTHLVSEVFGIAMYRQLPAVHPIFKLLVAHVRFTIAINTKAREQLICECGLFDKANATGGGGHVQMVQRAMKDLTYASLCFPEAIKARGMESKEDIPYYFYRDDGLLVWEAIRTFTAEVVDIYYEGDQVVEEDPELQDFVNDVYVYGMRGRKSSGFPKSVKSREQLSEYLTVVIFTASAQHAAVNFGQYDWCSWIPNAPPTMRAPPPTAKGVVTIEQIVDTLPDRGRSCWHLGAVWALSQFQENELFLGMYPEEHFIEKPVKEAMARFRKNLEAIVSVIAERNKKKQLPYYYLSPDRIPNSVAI
- ASSAY METHOD TEXT: In vitro inhibitory activity against 5-lipoxygenase in a human whole blood assay
pIC50: −log10 of the molar value.
A collection of molecules and their measured pIC50
PROPERTY LABEL: pIC50

molecule=NC(=O)N(O)CCC#C[C@H]1CC[C@H](CN2CCN([C@H](c3ccccc3)c3ccc(Cl)cc3)CC2)O1 property_label=pIC50 test_result=6.29
molecule=NC(=O)N(O)CCC#Cc1ccc(CN2CCN([C@H](c3ccccc3)c3ccc(Cl)cc3)CC2)o1 property_label=pIC50 test_result=6.38
molecule=NC(=O)N(O)CCC#C[C@@H]1CC[C@@H](COc2ccc(F)cc2)O1 property_label=pIC50 test_result=6.93
molecule="CC(C#Cc1ccc(CN2CCN([C@H](c3ccccc3)c3ccc(Cl)cc3)CC2)o1)N(O)C(N)=O (stereo partly specified)" property_label=pIC50 test_result=5.46
molecule=NC(=O)N(O)CCC#Cc1ccc(CN2CCN(C(c3ccc(F)cc3)c3ccc(F)cc3)CC2)o1 property_label=pIC50 test_result=6.77
molecule=NC(=O)N(O)CCC#C[C@@H]1CC[C@@H](CN2CCN(C(c3ccc(F)cc3)c3ccc(F)cc3)CC2)O1 property_label=pIC50 test_result=6.85

# credit: ChEMBL document CHEMBL1147568
